Molecular target: NMDA receptor
Assay: Displacement of tritiated CPP ([3H] CPP binding) in rat frontal cortex homogenates
The entries below are paired with their reported pIC50.
API: returns pIC50 as number; meaning -log10 of concentration in mol/L.

compound="NC(Cc1nc2cc3ccccc3cc2nc1CP(=O)(O)O)C(=O)O (stereo not shown)" meas_value=8.22
compound="NC(Cc1nc2ccccc2nc1CP(=O)(O)O)C(=O)O (single isomer, unassigned) [Laevoisomer of Example 3]" meas_value=7.54
compound="NC(Cc1nc2cc(Cl)ccc2nc1CP(=O)(O)O)C(=O)O (stereo not shown)" meas_value=7.62

Turning now to a further compound:
[in] What measured pIC50 is associated with COc1cc2nc(CC(N)C(=O)O)c(CP(=O)(O)O)nc2cc1OC (stereo not shown) on NMDA receptor?
[out] 6.08
